tested on: NIH3T3; experiment: Cytotoxic Profiling of Annotated Libraries Using Quantitative High-Throughput Screening (AID 1296008); settings: Five cell lines viability, CellTiter-Glo ATP luminescence, 48-72 h; active compounds read low; note: % is set by controls: 0 for no effect and ±100 for the full control effect; nearly all actives have a fitted effect of over 60% in size
Results filed as inconclusive are left out.
observable: max response (%)
Please respond with the number in % and leave the unit unwritten.

Solved cases below.
In [3]: df
Out[3]:
                                   compound  assay_target  value_reported
0  COc1cc(C)c(C=CC(C)=CC=CC(C)=CC(=O)O)c(C)c1C        NIH3T3           -4.41
1  CC(=O)N1CCN(c2ccc(OCc3nn(C)c(C)c3-c3cccc4c(CCCOc5cccc6ccccc56)c(C(=O)O)n(Cc5cccnc5)c34)cc2)CC1        NIH3T3           -8.89
2  CC(=O)SCC(Cc1ccccc1)C(=O)NCC(=O)OCc1ccccc1 (stereo unspecified)        NIH3T3           -4.22

Q: # lookup: max response of N#Cc1cc(NC(=O)Nc2nnc(-c3ccncc3)s2)ccc1-c1cn[nH]c1
Result: -2.38

Q: # lookup: max response of CC(=O)N[C@H]1[C@@H]([C@H](O)[C@H](O)CO)OC(C(=O)O)=C[C@@H]1N=C(N)N
Result: 3.71

Q: # lookup: max response of COC(=O)[C@@H]1[C@H]2C[C@@H]3c4[nH]c5ccccc5c4CCN3C[C@@H]2CC[C@@H]1O
Result: -9.61

Q: # lookup: max response of CC(N[C@H]1CCCC[C@H]1NC(=O)c1ccc(Cl)cc1)c1cccc2ccccc12 (stereo partly specified)
Result: -12.9

Q: # lookup: max response of COC(=O)[C@H](CCCN=C(N)N)NS(=O)(=O)c1ccc(C)cc1
Result: 2.63

Q: # lookup: max response of COC(=O)C=CC(=O)OC
Result: -0.0603

Q: # lookup: max response of NS(=O)(=O)OC[C@@H]1C[C@@H](n2ccc3c(N[C@H]4CCc5ccccc54)ncnc32)C[C@H]1O
Result: -27.1

Q: # lookup: max response of CN[C@H]1[C@@H](O)[C@@H]2O[C@@H]3O[C@H](C)CC(=O)[C@]3(O)O[C@@H]2[C@@H](NC)[C@H]1O
Result: 4.68

* * *

assay: Quantitative High-Throughput drug screen in 47 multiple myeloma cell lines against the NCATS MIPE library collection: OPM2_DSMZ cell viability assay (AID 1919872); settings: OPM2 myeloma viability, CellTiter-Glo ATP luminescence, 48 h; series mostly up to 45.8 µM; note: nearly all actives have a fitted effect of over 30% in size
Results filed as inconclusive are left out. Activity calls are given as the source filed them. Calls follow the shape of the dose curve; as a rule, active = well fitted cell-killing curve with a large enough effect; inconclusive = small, poorly fitted or top-dose-only effect, or effect the other way; inactive = no such curve, though single readings can be large or run the other way.
Could you please pick one outcome from this set? 1 = active, 0 = inactive

                                   molecule  category
0  CN[C@@H]1C[C@H]2O[C@@](C)([C@H]1OC)n1c3ccccc3c3c4c(c5c6ccccc6n2c5c31)C(=O)N[C@H]4O         1
1  O=C(C[C@@H]1CC=CCCC(=O)O[C@H](c2ccccc2)CNC1=O)NCc1ccc(Cl)cc1         0
2  CC(=O)C1=C(O)C=C2Oc3c(C(C)=O)c(O)c(C)c(O)c3C2(C)C1=O (stereo not drawn)         0

Q: Fill in: this test's call for O=C(NC1CC1)c1cccc(-c2ccc3c(NC(=O)C4CC4)n[nH]c3c2)c1 is ___
Result: 1

Q: Fill in: this test's call for C=C(C)[C@@H]1CC[C@]2(C(=O)O)CC[C@]3(C)[C@H](CC[C@@H]4[C@@]5(C)CC[C@H](O)C(C)(C)[C@@H]5CC[C@]43C)[C@@H]12 is ___
Result: 0

Q: Fill in: this test's call for Nc1ccn(C2CO[C@H](CO)O2)c(=O)n1 (stereo partly drawn) is ___
Result: 0
